Origin of measurements: paper PMC10397247

# tested.target: T1, 4H967-bA
# T1 chain: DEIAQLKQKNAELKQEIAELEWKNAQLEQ
# experiment.summary: two-hybrid library CCNG1;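 further: natural log of median RNA to DNA barcode read ratio; higher means stronger binding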
# interaction score per entry
property.measured: interaction score

* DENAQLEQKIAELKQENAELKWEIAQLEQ [4H1369-bA] | -1.41
* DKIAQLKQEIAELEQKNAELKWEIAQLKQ [4H2618-bA] | -0.631
* DEIAQLEQKNAELKQEIAELEWKIAQLKQ [4H454-bA] | -0.131
* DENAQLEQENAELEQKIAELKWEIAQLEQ [4H1193-bA] | -0.577
* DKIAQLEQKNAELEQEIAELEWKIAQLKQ [4H2438-bA] | -0.568
* DKNAQLKQKIAELEQEIAELEWENAQLEQ [4H3843-bA] | -1.25
* DEIAQLKQKNAELKQEIAELEWKNAQLEQ [4H967-bA] | -0.153
